# target: HIV-1 PR (Human immunodeficiency virus type 1 group M subtype B, UniProt P04585)
# measurementDescription: HIV-protease inhibitory activity assay (FRET peptide substrate)
# testConditions: Test Example 1
# Procedure: Test Example 1: HIV-Protease Inhibitory Activity Assay The HIV-1 PR assay was performed by using a FRET (Fluorescence Resonance Energy Transfer) peptide substrate (AnaSpec, Inc., Fremont, Calif.). Initially in the intact FRET peptide, the fluorescence of HiLyte Fluor 488 is quenched by QXL 520. Upon substrate cleavage by PR, the fluorescence is recovered and can be monitored. […] Background fluorescence intensity was measured and let it stand for another 15 minutes at room temperature. […]
pIC50: −log10 of the molar value.

compound	target	pIC50
COc1ccc(S(=O)(=O)N(CC(C)C)CC(O)C(Cc2ccc(NCc3cc(-c4ccc5c(c4)[nH]c4ccccc45)ccc3-c3sc4c(c3C(=O)O)CC(C)(C)CC4)cc2)NC(=O)OC2COC3(C)OCCC23)cc1 (centres unmarked) [Compound I-724]	HIV-1 PR (Human immunodeficiency virus type 1 group M subtype B, UniProt P04585)	8.74
COc1ccc(S(=O)(=O)N(CC(C)C)CC(O)C(Cc2ccc(NCC3CCCC3c3sc4c(c3C(=O)O)CC(C)(C)CC4)cc2)NC(=O)OC2COC3OCCC23)cc1 (centres unmarked) [Compound I-877]	HIV-1 PR (Human immunodeficiency virus type 1 group M subtype B, UniProt P04585)	8.67
CC(C)CN(CC(O)C(Cc1ccc(NCc2ccccc2-c2sc3c(c2C(=O)O)CC(C)(C)CC3)cc1)NC(=O)OC1COC2(C)OCCC12)S(=O)(=O)c1ccc2ncsc2c1 (centres unmarked) [Compound I-467]	HIV-1 PR (Human immunodeficiency virus type 1 group M subtype B, UniProt P04585)	8.62
CC(C)CN(CC(O)C(Cc1ccc(CCc2sc3c(c2C(=O)O)CC(C)(C)CC3)cc1)NC(=O)OC1COC2(C)OCCC12)S(=O)(=O)c1ccc2ncsc2c1 (centres unmarked) [Compound I-107]	HIV-1 PR (Human immunodeficiency virus type 1 group M subtype B, UniProt P04585)	8.63
COC(=O)NC(C(=O)NC(Cc1ccccc1)C(O)CN(Cc1ccc(-c2sc3c(c2C(=O)O)CC(C)(C)CC3)cc1)NC(=O)C(NC(=O)OC)C(C)(C)C)C(C)(C)C (centres unmarked) [Compound I-901]	HIV-1 PR (Human immunodeficiency virus type 1 group M subtype B, UniProt P04585)	8.63

* * *

Known IC50 of a selection of compounds
# target: HIV-1 PR (Human immunodeficiency virus type 1 group M subtype B, UniProt P04585)
# measurementDescription: HIV-protease inhibitory activity assay (FRET peptide substrate)
# testConditions: Test Example 1

compound	IC50 (nM)
COc1ccc(S(=O)(=O)N(CC(C)C)CC(O)C(Cc2ccc(NCc3cc(C)c(-c4sc5c(c4C(=O)O)CC(C)(C)CC5)c(C)c3)cc2)NC(=O)OC2COC3(C)OCCC23)cc1 (centres unmarked) [Compound I-533]	10.6
COC(=O)NC(C(=O)NC(Cc1ccccc1)C(O)CN(Cc1ccc(-c2ccc(-c3sc4c(c3C(=O)O)CC(C)(C)CC4)cc2)cc1)NC(=O)C(NC(=O)OC)C(C)(C)C)C(C)(C)C (centres unmarked) [Compound I-900]	2.9
COc1ccc(S(=O)(=O)N(CC(C)C)CC(O)C(Cc2ccc(N(C)Cc3ncccc3-c3ccccc3-c3sc4c(c3C(=O)O)CC(C)(C)CC4)cc2)NC(=O)OC2COC3(C)OCCC23)cc1 (centres unmarked) [Compound I-477]	2
CC1(C)CCc2sc(-c3cccc(CCCN(C[C@@H](O)[C@H](Cc4ccccc4)NC(=O)O[C@H]4CO[C@@]5(C)OCC[C@@H]45)S(=O)(=O)c4ccc5ncsc5c4)c3)c(C(=O)O)c2C1 [Compound I-36]	1.88
CC(C)CN(CC(O)C(Cc1ccc(NCc2ccccc2C(=O)Nc2sc3c(c2C(=O)O)CC(C)(C)CC3)cc1)NC(=O)OC1COC2(C)OCCC12)S(=O)(=O)c1ccc2c(c1)OCO2 (centres unmarked) [Compound I-591]	3.16

* * *

# target: HIV-1 PR (Human immunodeficiency virus type 1 group M subtype B, UniProt P04585)
# measurementDescription: HIV-protease inhibitory activity assay (FRET peptide substrate)
# testConditions: Test Example 1
Mark each entry fulfilled if its IC50 sits below 2 nM, and not fulfilled for all others.

compound	cat
CCCCCCCCCCCCCC(=O)Nc1ccc(CN(C)c2ccc(C[C@H](NC(=O)OC3CO[C@@]4(C)OCC[C@@H]34)[C@H](O)CN(CC(C)C)S(=O)(=O)c3ccc(OC)cc3)cc2)c(-c2sc3c(c2C(=O)O)CC(C)(C)CC3)c1 (stereo partly shown)	not fulfilled
COc1ccc(S(=O)(=O)N(CC(C)C)CC(O)C(Cc2ccc(OCc3ccccc3-c3sc(-c4ccccc4)cc3C(=O)O)cc2)NC(=O)OC2COC3OCCC23)cc1 (stereo not shown)	fulfilled
COc1ccc(S(=O)(=O)N(CC(C)C)CC(O)C(Cc2ccc(N(C)Cc3cc(C(F)(F)F)ccc3-n3nc4c(c3C(=O)O)CC(C)(C)CC4)cc2)NC(=O)OC2COC3(C)OCCC23)cc1 (stereo not shown)	not fulfilled
COc1ccc(S(=O)(=O)N(CC(C)C)CC(O)C(Cc2ccc(N(C)CC3CCCC3c3sc4c(c3C(=O)O)CC(C)(C)CC4)cc2)NC(=O)OC2COC3(C)OCCC23)cc1 (stereo not shown)	not fulfilled
COc1ccc(S(=O)(=O)N(CC(C)C)CC(O)C(Cc2ccc(CN3CCc4ccc(-c5sc6c(c5C(=O)O)CC(C)(C)CC6)cc4C3)cc2)NC(=O)OC2COC3(C)OCCC23)cc1 (stereo not shown)	fulfilled
COc1ccc(S(=O)(=O)N(CC(C)C)CC(O)C(Cc2ccc(N(C)C3CCc4c(-c5sc6c(c5C(=O)O)CC(C)(C)CC6)cccc43)cc2)NC(=O)OC2COC3(C)OCCC23)cc1 (stereo not shown) [Compound I-709]	not fulfilled
COc1ccc(S(=O)(=O)N(CC(C)C)CC(O)C(Cc2ccc(NCc3cc(C(F)(F)F)ccc3-n3nc(C(=O)O)c4c3CCC(C)(C)C4)cc2)NC(=O)OC2COC3(C)OCCC23)cc1 (stereo not shown)	not fulfilled
COc1ccc(S(=O)(=O)N(CC(C)C)CC(O)C(Cc2ccc(-n3cccc3)cc2)NC(=O)OC2COC3(C)OCCC23)cc1 (stereo not shown)	not fulfilled

* * *

# measurementDescription: Evaluation of total body clearance (CLtot), intravenous administration
# Format: in vivo, Sprague-Dawley (SD)
# testConditions: rat (SD), intravenous administration 0.5-10 mg/kg; CLtot = dose/AUC
Known rat_CLt of a selection of compounds

compound	resultUnit	rat_CLt
COc1ccc(S(=O)(=O)N(CC2CCCC2)CC(O)C(Cc2ccc(NCc3ccccc3-c3sc4c(c3C(=O)O)CC(C)(C)CC4)cc2)NC(=O)OC2COC3(C)OCCC23)cc1 (centres unmarked)	mL/min/kg	2.41
COc1ccc(S(=O)(=O)N(CC(C)C)CC(O)C(Cc2ccc(OCc3ccccc3-c3sc4c(c3C(=O)O)CCC4)cc2)NC(=O)OC2COC3OCCC23)cc1 (centres unmarked)	mL/min/kg	4.09
COc1ccc(S(=O)(=O)N(CC(C)C)CC(O)C(Cc2ccc(N3CCC(Oc4cc(N(C)C)ccc4-c4sc5c(c4C(=O)O)CC(C)(C)CC5)C3)cc2)NC(=O)OC2COC3(C)OCCC23)cc1 (centres unmarked)	mL/min/kg	2.2
COc1ccc(S(=O)(=O)N(CC(C)C)CC(O)C(Cc2ccc(OCc3cc(C#N)ccc3-c3sc4c(c3C(=O)O)CC(C)(C)CC4)cc2)NC(=O)OC2COC3(C)OCCC23)cc1 (centres unmarked)	mL/min/kg	3.15
COc1ccc(S(=O)(=O)N(CC(C)C)CC(O)C(Cc2ccc(NCc3ncccc3-c3sc4c(c3C(=O)O)CC(C)(C)CC4)cc2)NC(=O)OC2COC3(C)OCCC23)cc1 (centres unmarked)	mL/min/kg	1.55

* * *

Known pIC50 of a selection of compounds
# target: HIV-1 PR (Human immunodeficiency virus type 1 group M subtype B, UniProt P04585)
# measurementDescription: HIV-protease inhibitory activity assay (FRET peptide substrate)
# testConditions: Test Example 1
pIC50: −log10 of the molar value.

compound	pIC50
CCN(Cc1ccccc1-c1sc2c(c1C(=O)O)CC(C)(C)CC2)c1ccc(CC(NC(=O)OC2COC3(C)OCCC23)C(O)CN(CC(C)C)S(=O)(=O)c2ccc(OC)cc2)cc1 (centres unmarked) [Compound I-352]	8.37
COc1ccc(S(=O)(=O)N(CC(C)C)CC(O)C(Cc2ccc(N3CCN(C(=O)c4sc5c(c4C(=O)O)CC(C)(C)CC5)CC3)cc2)NC(=O)OC2COC3(C)OCCC23)cc1 (centres unmarked) [Compound I-224]	8.71
COc1ccc(S(=O)(=O)N(CC(C)C)CC(O)C(Cc2ccc(NCc3cccc(C(=O)Nc4sc5c(c4C(=O)O)CC(C)(C)CC5)c3)cc2)NC(=O)OC2COC3(C)OCCC23)cc1 (centres unmarked) [Compound I-436]	8.50
COc1ccc(S(=O)(=O)N(CC(C)C)CC(O)C(Cc2ccc(N(CCCCc3ccccc3)Cc3ccccc3-c3sc4c(c3C(=O)O)CC(C)(C)CC4)cc2)NC(=O)OC2COC3(C)OCCC23)cc1 (centres unmarked) [Compound I-432]	8.07
CCN(Cc1ccccc1C(=O)Nc1sc2c(c1C(=O)O)CC(C)(C)CC2)c1ccc(CC(NC(=O)OC2COC3(C)OCCC23)C(O)CN(CC(C)C)S(=O)(=O)c2ccc(OC)cc2)cc1 (centres unmarked) [Compound I-669]	8.07
